assay: Metabolic stability in liver microsomes (NADPH); conditions: human, liver microsomes
Outcome Measure: microsomal CLint at 1 µM (µL/min/mg)
The figure you give is taken to be in µL/min/mg; do not add the unit.

Complete the entry with microsomal CLint at 1 µM for C=C1CN2[C@H](COC(=O)N3CCC(Cc4cn([C@H](C(=O)N5C[C@H](O)C[C@H]5C(=O)N[C@@H](C)c5ccc(-c6scnc6C)cc5)C(C)C)nn4)CC3)CC[C@@]2(COc2nc(N3CCC[C@@](C)(O)C3)c3cnc(-c4cc(O)cc5ccc(F)c(CC)c45)c(F)c3n2)C1 [Compound 141] 21.2

====

assay: in vitro; details: human, microsomes
Outcome Measure: microsomal CLint (µL/min/mg)
Respond with the bare value in µL/min/mg.

| Compound | Result Units | microsomal CLint |
| --- | --- | --- |
| CCc1c(F)ccc2cc(O)cc(-c3ncc4c(N5CCC[C@@](C)(O)C5)nc(OCC5(CN6CCC(c7ccc(-c8cn([C@H](C(=O)N9C[C@H](O)C[C@H]9C(=O)N[C@@H](C)c9ccc(-c%10scnc%10C)cc9)C(C)(C)C)nn8)cc7)CC6)CC5)nc4c3F)c12 [Compound 119] | µL/min/mg | 6.1 |

Check the records and state microsomal CLint for CCc1c(F)ccc2cc(O)cc(-c3ncc4c(N5CCC[C@@](C)(O)C5)nc(OCC5(CN6CCC(Oc7cnc(-c8cn([C@H](C(=O)N9C[C@H](O)C[C@H]9C(=O)N[C@@H](C)c9ccc(-c%10scnc%10C)cc9)C(C)C)nn8)cn7)CC6)CC5)nc4c3F)c12 [Compound 144] 18.8

Output microsomal CLint of CCc1c(F)ccc2cc(O)cc(-c3ncc4c(N5CCC[C@@](C)(O)C5)nc(OCC5(CN6CCC(OCc7ccc(-c8cn([C@H](C(=O)N9C[C@H](O)C[C@H]9C(=O)N[C@@H](C)c9ccc(-c%10scnc%10C)cc9)C(C)C)nn8)cc7)CC6)CC5)nc4c3F)c12 [Compound 93] 23.5

Given CCc1c(F)ccc2cc(O)cc(-c3ncc4c(N5CCC[C@@](C)(O)C5)nc(OCC5(CN6CCC(Oc7ccc(-c8cn([C@H](C(=O)N9C[C@H](O)C[C@H]9C(=O)N[C@@H](C)c9ccc(-c%10scnc%10C)cc9)C(C)C)nn8)nc7)CC6)CC5)nc4c3F)c12 [Compound 117] , respond with its microsomal CLint. 8.8

====

Observed DC50, system KRAS G12D (Homo sapiens, UniProt P01116, G12D).
The reply should read as a number followed by its unit.

Sample answers from the record:
| Molecule | DC50 |
| --- | --- |
| CCc1c(F)ccc2cc(O)cc(-c3ncc4c(N5CCC[C@@](C)(O)C5)nc(OCC5(CN6CC(N7CCN(c8cc([C@H](C(=O)N9C[C@H](O)C[C@H]9C(=O)N[C@@H](C)c9ccc(-c%10scnc%10C)cc9)C(C)C)on8)CC7)C6)CC5)nc4c3F)c12 [Compound 116] | 30 nM |
| CCc1c(F)ccc2cc(O)cc(-c3ncc4c(N5CCC[C@@](C)(O)C5)nc(OCC5(CN6CCC7(CC6)CN(c6cc([C@H](C(=O)N8C[C@H](O)C[C@H]8C(=O)N[C@@H](C)c8ccc(-c9scnc9C)cc8)C(C)C)on6)C7)CC5)nc4c3F)c12 [Compound 105] | 8.9 nM |
| CCc1c(F)ccc2cc(O)cc(-c3ncc4c(N5CCC[C@@](C)(O)C5)nc(OCC5(CN6CCC7(CC6)CN(c6ccc(-c8cn([C@H](C(=O)N9C[C@H](O)C[C@H]9C(=O)N[C@@H](C)c9ccc(-c%10scnc%10C)cc9)C(C)C)nn8)cn6)C7)CC5)nc4c3F)c12 [Compound 118] | 11 nM |
| CCc1c(F)ccc2cc(O)cc(-c3ncc4c(N5CCC[C@@](C)(O)C5)nc(OCC5(CN6CCC(Oc7ccc(-c8cn([C@H](C(=O)N9C[C@H](O)C[C@H]9C(=O)N[C@@H](CO)c9ccc(-c%10ccnn%10CC)cc9)C(C)C)nn8)cn7)CC6)CC5)nc4c3F)c12 [Compound 160] | 2 nM |
| C=C1CN2[C@@H](COC(=O)N3CCC4(CC3)CC(c3cn([C@H](C(=O)N5C[C@H](O)C[C@H]5C(=O)N[C@@H](C)c5ccc(-c6scnc6C)cc5)C(C)C)nn3)C4)CC[C@@]2(COc2nc(N3CCC[C@@](C)(O)C3)c3cnc(-c4cc(O)cc5ccc(F)c(CC)c45)c(F)c3n2)C1 [Compound 143] | 12 nM |

Under KRAS G12D (Homo sapiens, UniProt P01116, G12D): report DC50 of CCc1c(F)ccc2cc(O)cc(-c3ncc4c(N5CCC[C@@](C)(O)C5)nc(OCC5(CN6CCN(CC78CC(c9cn([C@H](C(=O)N%10C[C@H](O)C[C@H]%10C(=O)N[C@@H](C)c%10ccc(-c%11scnc%11C)cc%10)C(C)C)nn9)(C7)C8)CC6)CC5)nc4c3F)c12 [Compound 148] . 13 nM

Provide KRAS G12D (Homo sapiens, UniProt P01116, G12D) DC50 reading for CCc1c(F)ccc2cc(O)cc(-c3ncc4c(N5CCC[C@@](C)(O)C5)nc(OCC5(CN6CCC(c7cn([C@H](C(=O)N8C[C@H](O)C[C@H]8C(=O)N[C@@H](C)c8ccc(-c9scnc9C)cc8)C(C)C)nn7)CC6)CC5)nc4c3F)c12 [Compound 131] . 18 nM
